target-under-test: Jurkat-hTIGIT-NFAT-CD226细胞上过表达的人TIGIT (human)
Sequence (Q495A1 whole entry): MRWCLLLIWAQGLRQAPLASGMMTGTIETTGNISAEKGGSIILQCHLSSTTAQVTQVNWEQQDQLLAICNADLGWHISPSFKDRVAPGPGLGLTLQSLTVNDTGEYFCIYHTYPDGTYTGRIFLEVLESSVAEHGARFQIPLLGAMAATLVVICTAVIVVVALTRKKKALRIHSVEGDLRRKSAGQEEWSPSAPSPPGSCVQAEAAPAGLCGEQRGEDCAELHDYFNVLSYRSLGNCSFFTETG
measurement-description: cell-based or functional assay
Listed below: Max RLU values for each entry.
measurement-label: Max RLU (RLU)

>>> quantitative_readout("嵌合抗TIGIT抗体A0 (antibody, human IgG1, kappa, V domains shown, also called B011-A-142E4C5) VH: ELQLQQSGPELVKPGASVKISCKASGYSFTDYNMNWVKQSNGKSLEWIGVINPNHGTISYNQKFKGKATLTVDQSSSTAYMQLNSLTSEDSAVYYCANNWDVWYFDVWGTGTTVTVSS VL: DIQMTQSPASLSASVGETVTITCRPSENIYSYLAWYRQKQGNSPQLLVYNAKALAEGVPSRFSGSGSGTQFSLKINSLQPEDFGSYYCQHHFGAPWTFGGGTKLEIKR")
9270
>>> quantitative_readout("人源化抗TIGIT抗体A1 (antibody, human IgG1, kappa, V domains shown, Humanized) VH: QLQLVQSGAEVKKPGASVKVSCKASGYSFTDYNMNWVRQAPGQSLEWIGVINPNHGTISYNQKFKGRVTMTRDQSTSTAYMELNSLRSEDTAVYYCANNWDVWYFDVWGQGTLVTVSS VL: DIQMTQSPSSLSASVGDRVTITCRPSENIYSYLAWYQQKPGKAPKLLIYNAKALAEGVPSRFSGSGSGTDFTLTISSLQPEDFATYYCQHHFGAPWTFGQGTKVEIKR")
8950
>>> quantitative_readout("人源化抗TIGIT抗体A2 (antibody, human IgG1, kappa, V domains shown, Humanized) VH: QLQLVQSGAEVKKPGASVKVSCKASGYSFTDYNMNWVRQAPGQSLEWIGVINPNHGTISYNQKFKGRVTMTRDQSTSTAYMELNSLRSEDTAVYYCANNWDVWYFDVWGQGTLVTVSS VL: DIQMTQSPSSLSASVGDRVTITCRPSENIYSYLAWYQQKPGKAPKLLVYNAKALAEGVPSRFSGSGSGTDFTLTISSLQPEDFATYYCQHHFGAPWTFGQGTKVEIKR")
9210
